- System: Enterococcus faecium MDR Van A ATCC 51559
- assayInfo: MIC assay, E. faecium MDR Van A ATCC 51559
- Type: cell-based
- conditionDescription: 24 h incubation, visual reading
- Protocol: Antimicrobial activity of compounds was tested against a number of bacterial strains, including Staphylococcus aureus (MRSA ATCC 43300, GISA NRS17, VISA NRS1, MRSA clinical isolate, daptomycin resistant clinical isolate), Streptococcus pneumoniae (MDR ATCC 700677), Enterococcus faecalis (VanA clinical isolate) and Enterococcus faecium (MDR Van A ATCC 51559). All compounds were prepared to 160 μg/ml solution in water from a stock solution of 1 mM concentration. […]
endpointName: Minimum Inhibitory Concentration (MIC) E. faecium ATCC51559

Known Minimum Inhibitory Concentration (MIC) E. faecium ATCC51559 results, listed for orientation:
[ask] Quote Minimum Inhibitory Concentration (MIC) E. faecium ATCC51559 reported for CNC(=O)C(CCCCNC(=O)C1NC(=O)C2NC(=O)C(NC(=O)C3NC(=O)C(CC(N)=O)NC(=O)C(NC(=O)C(CC(C)C)NC)C(O)c4ccc(c(Cl)c4)Oc4cc3cc(c4OC3OC(CO)C(O)C(O)C3OC3CC(C)(N)C(O)C(C)O3)Oc3ccc(cc3Cl)C2O)c2ccc(O)c(c2)-c2c(O)cc(O)cc21)NC(=O)C(CCCCN)NC(=O)C(CCCCN)NC(=O)CCCCCCCCCc1ccccc1 (stereo not drawn) please.
[reply] xx (xx = 1-4)

[ask] Quote Minimum Inhibitory Concentration (MIC) E. faecium ATCC51559 reported for CCCCCCCC(=O)NC(CCCCN)C(=O)NC(CCCCN)C(=O)NC(CCCCNC(=O)C1NC(=O)C2NC(=O)C(NC(=O)C3NC(=O)C(CC(N)=O)NC(=O)C(NC(=O)C(CC(C)C)NC)C(O)c4ccc(c(Cl)c4)Oc4cc3cc(c4OC3OC(CO)C(O)C(O)C3OC3CC(C)(N)C(O)C(C)O3)Oc3ccc(cc3Cl)C2O)c2ccc(O)c(c2)-c2c(O)cc(O)cc21)C(=O)NC (stereo not drawn) please.
[reply] x (x = >4)

[ask] Quote Minimum Inhibitory Concentration (MIC) E. faecium ATCC51559 reported for `CCCCCOc1ccc(C(=O)N[C@@H](CCCCN)C(=O)N[C@@H](CCCCN)C(=O)N[C@@H](CCCCNC(=O)[C@H]2NC(=O)[C@H]3NC(=O)[C@H](NC(=O)[C@@H]4NC(=O)[C@H](CC(N)=O)NC(=O)[C@H](NC(=O)[C@@H](CC(C)C)NC)[C@H](O)c5ccc(c(Cl)c5)Oc5cc4cc(c5O[C@@H]4O[C@H](CO)[C@@H](O)[C@H](O)[C@H]4O[C@H]4C[C@](C)(N)[C@H](O)[C@H](C)O4)Oc4ccc(cc4Cl)[C@H]3O)c3ccc(O)c(c3)-c3c(O)cc(O)cc32)C(=O)O)cc1` please.
[reply] x (x = >4)

[ask] Quote Minimum Inhibitory Concentration (MIC) E. faecium ATCC51559 reported for `CCCCCCCCCC(=O)N[C@@H](CCCCN)C(=O)NCCNC(=O)[C@H]1NC(=O)[C@H]2NC(=O)[C@H](NC(=O)[C@@H]3NC(=O)[C@H](CC(N)=O)NC(=O)[C@H](NC(=O)[C@@H](CC(C)C)NC)[C@H](O)c4ccc(c(Cl)c4)Oc4cc3cc(c4O[C@@H]3O[C@H](CO)[C@@H](O)[C@H](O)[C@H]3O[C@H]3C[C@](C)(N)[C@H](O)[C@H](C)O3)Oc3ccc(cc3Cl)[C@H]2O)c2ccc(O)c(c2)-c2c(O)cc(O)cc21` please.
[reply] xx (xx = 1-4)

Next:
[ask] Quote Minimum Inhibitory Concentration (MIC) E. faecium ATCC51559 reported for `CCCCCCCCCCC(=O)NCCCC[C@H](NC(=O)CCCCCCCCCC)C(=O)N[C@@H](CCCCN)C(=O)N[C@@H](CCCCN)C(=O)N[C@@H](CCCCNC(=O)[C@H]1NC(=O)[C@H]2NC(=O)[C@H](NC(=O)[C@@H]3NC(=O)[C@H](CC(N)=O)NC(=O)[C@H](NC(=O)[C@@H](CC(C)C)NC)[C@H](O)c4ccc(c(Cl)c4)Oc4cc3cc(c4O[C@@H]3O[C@H](CO)[C@@H](O)[C@H](O)[C@H]3O[C@H]3C[C@](C)(N)[C@H](O)[C@H](C)O3)Oc3ccc(cc3Cl)[C@H]2O)c2ccc(O)c(c2)-c2c(O)cc(O)cc21)C(=O)O` please.
[reply] x (x = >4)

[ask] Quote Minimum Inhibitory Concentration (MIC) E. faecium ATCC51559 reported for `CCCCCCCC(=O)N[C@@H](CCCCN)C(=O)N[C@@H](CCCCNC(=O)[C@H]1NC(=O)[C@H]2NC(=O)[C@H](NC(=O)[C@@H]3NC(=O)[C@H](CC(N)=O)NC(=O)[C@H](NC(=O)[C@@H](CC(C)C)NC)[C@H](O)c4ccc(c(Cl)c4)Oc4cc3cc(c4O[C@@H]3O[C@H](CO)[C@@H](O)[C@H](O)[C@H]3O[C@H]3C[C@](C)(N)[C@H](O)[C@H](C)O3)Oc3ccc(cc3Cl)[C@H]2O)c2ccc(O)c(c2)-c2c(O)cc(O)cc21)C(=O)O` please.
[reply] x (x = >4)

[ask] Quote Minimum Inhibitory Concentration (MIC) E. faecium ATCC51559 reported for `CCCCCCCNc1ccc(C(=O)N[C@@H](CCCCN)C(=O)N[C@@H](CCCCN)C(=O)N[C@@H](CCCCNC(=O)[C@H]2NC(=O)[C@H]3NC(=O)[C@H](NC(=O)[C@@H]4NC(=O)[C@H](CC(N)=O)NC(=O)[C@H](NC(=O)[C@@H](CC(C)C)NC)[C@H](O)c5ccc(c(Cl)c5)Oc5cc4cc(c5O[C@@H]4O[C@H](CO)[C@@H](O)[C@H](O)[C@H]4O[C@H]4C[C@](C)(N)[C@H](O)[C@H](C)O4)Oc4ccc(cc4Cl)[C@H]3O)c3ccc(O)c(c3)-c3c(O)cc(O)cc32)C(N)=O)cc1` please.
[reply] xx (xx = 1-4)

[ask] Quote Minimum Inhibitory Concentration (MIC) E. faecium ATCC51559 reported for `CCCCCCCCCC(=O)N[C@@H](CCCNC(=N)N)C(=O)N1CCC(CNC(=O)[C@H]2NC(=O)[C@H]3NC(=O)[C@H](NC(=O)[C@@H]4NC(=O)[C@H](CC(N)=O)NC(=O)[C@H](NC(=O)[C@@H](CC(C)C)NC)[C@H](O)c5ccc(c(Cl)c5)Oc5cc4cc(c5O[C@@H]4O[C@H](CO)[C@@H](O)[C@H](O)[C@H]4O[C@H]4C[C@](C)(N)[C@H](O)[C@H](C)O4)Oc4ccc(cc4Cl)[C@H]3O)c3ccc(O)c(c3)-c3c(O)cc(O)cc32)CC1` please.
[reply] x (x = >4)
